Target: Nrg2 (UniProt P38082)
Sequence: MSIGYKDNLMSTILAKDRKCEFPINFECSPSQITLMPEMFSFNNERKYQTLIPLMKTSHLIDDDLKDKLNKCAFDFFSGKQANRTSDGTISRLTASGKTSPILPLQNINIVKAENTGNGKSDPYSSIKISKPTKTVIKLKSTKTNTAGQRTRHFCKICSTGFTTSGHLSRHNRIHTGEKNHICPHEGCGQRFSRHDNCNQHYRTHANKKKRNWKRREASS
Test: PBM E-score (8-mer binding enrichment) (E-score (-0.5 to 0.5)); higher = stronger / more preferred TF binding
Conditions: protein concentration: 100 nM; construct: GST-full length
Whole data set: some 33,000 sequences, median “E-score (-0.5 to 0.5)” near -8e-05, cut for the highest 2% near 0.23. The sample as a whole holds a higher share of the highest values than the screen did.
Binary call on PBM E-score: Condition met from 0.01 upward, Condition not met beneath that.

Exercise: Hi, just wondering whether ACCACACG shows PBM E-score of 0.01 or higher.
Key: Condition not met

Exercise: Hi, just wondering whether AGACCAAT shows PBM E-score of 0.01 or higher.
Key: Condition not met

Exercise: Hi, just wondering whether AAATCAGA shows PBM E-score of 0.01 or higher.
Key: Condition met

Exercise: Hi, just wondering whether AACCGCGG shows PBM E-score of 0.01 or higher.
Key: Condition met

Exercise: Hi, just wondering whether GCAAGATA shows PBM E-score of 0.01 or higher.
Key: Condition met

Exercise: Hi, just wondering whether AATGTTGA shows PBM E-score of 0.01 or higher.
Key: Condition not met

Exercise: Hi, just wondering whether ATCGGAAA shows PBM E-score of 0.01 or higher.
Key: Condition met

Exercise: Hi, just wondering whether CCACCACG shows PBM E-score of 0.01 or higher.
Key: Condition not met

Others:
Exercise: Hi, just wondering whether TAAATGAA shows PBM E-score of 0.01 or higher.
Key: Condition met

----------
Target: Nrg2 (UniProt P38082)
Sequence: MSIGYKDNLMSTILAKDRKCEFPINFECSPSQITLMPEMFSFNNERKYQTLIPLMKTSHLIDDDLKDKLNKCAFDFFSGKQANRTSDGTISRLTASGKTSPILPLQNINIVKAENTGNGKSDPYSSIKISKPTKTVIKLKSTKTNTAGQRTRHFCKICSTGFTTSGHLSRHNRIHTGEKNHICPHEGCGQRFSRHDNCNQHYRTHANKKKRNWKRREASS
Assay: PBM E-score (8-mer binding enrichment) (E-score (-0.5 to 0.5)); higher = stronger / more preferred TF binding
Details: protein concentration: 100 nM; construct: GST-full length
Over roughly 33,000 sequences, “E-score (-0.5 to 0.5)” has its median near -8e-05; the highest 2% begin near 0.23. This is one part of a sample in which the highest values are shown more often than they occur.
Binary call on PBM E-score: Condition met from 0.08 upward, Condition not met beneath that.

Take a look at these entries with their results.
Exercise: Hi, just wondering whether GATGAACC shows PBM E-score of 0.08 or higher.
Key: Condition not met

Exercise: Hi, just wondering whether ATCGATTA shows PBM E-score of 0.08 or higher.
Key: Condition not met

Exercise: Hi, just wondering whether CTCGATTA shows PBM E-score of 0.08 or higher.
Key: Condition met

Exercise: Hi, just wondering whether AAGGGTTA shows PBM E-score of 0.08 or higher.
Key: Condition not met

Exercise: Hi, just wondering whether AACTTATG shows PBM E-score of 0.08 or higher.
Key: Condition not met

Exercise: Hi, just wondering whether AACTTATT shows PBM E-score of 0.08 or higher.
Key: Condition met

Exercise: Hi, just wondering whether AAGGGTTC shows PBM E-score of 0.08 or higher.
Key: Condition met

Exercise: Hi, just wondering whether AATGAACC shows PBM E-score of 0.08 or higher.
Key: Condition not met

Exercise: Hi, just wondering whether CTCGATAC shows PBM E-score of 0.08 or higher.
Key: Condition met

Exercise: Hi, just wondering whether CATGAACC shows PBM E-score of 0.08 or higher.
Key: Condition met

# next sequence below
Exercise: Hi, just wondering whether CTCGATTC shows PBM E-score of 0.08 or higher.
Key: Condition met
